As shown below, each of these molecules has a reported inhibition at 10 µM value.
# test.system: B1R receptor of the rat (Rattus norvegicus, UniProt P97583)
# Construct: host or cells: CHO K1 cells (Chinese hamster ovary), stably transfected
# Sequence (P97583 whole entry): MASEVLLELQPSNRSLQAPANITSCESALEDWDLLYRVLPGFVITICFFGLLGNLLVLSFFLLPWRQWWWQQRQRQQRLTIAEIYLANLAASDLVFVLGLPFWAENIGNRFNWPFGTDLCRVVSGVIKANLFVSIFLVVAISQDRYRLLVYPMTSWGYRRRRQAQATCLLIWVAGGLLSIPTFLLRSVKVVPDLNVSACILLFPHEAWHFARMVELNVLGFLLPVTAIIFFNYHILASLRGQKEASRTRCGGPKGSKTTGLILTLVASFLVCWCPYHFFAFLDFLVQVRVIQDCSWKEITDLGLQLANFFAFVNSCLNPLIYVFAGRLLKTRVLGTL
# procedure.details: Functional study on the bradykinin receptor 1 (B1R), FLIPR Ca2+ assay, rB1R cells
# Format: cell-based
# assay.setup: CHO-K1, test substance 10 μM, agonist Des-Arg9-bradykinin 100 nM, % inhibition compared with the maximum achievable inhibition, read-out: B1R Antagonism, rat [10 μM] % Inhibition
Structures can show the parent of a compound that is named as a salt.
Write the quantity with the unit trailing the number.

Before answering, review these 3 worked examples.
### Prompt Could you tell me which inhibition at 10 µM is on file for COc1cccc(N2CCN(C(=O)COCC3CCCCN3S(=O)(=O)c3c(C)cc(OC)cc3C)CC2)c1 (stereo not shown) ?
### Response 93.3%

### Prompt Requested field: inhibition at 10 µM. Item: CN1CCC(N2CCN(C(=O)COCC3Cc4ccccc4CN3S(=O)(=O)c3ccc4ccccc4c3)CC2)CC1 (stereo not shown) [Example 178, dihydrochloride]
### Response 99.8%

### Prompt Give its inhibition at 10 µM value. Item: CCc1ccc(CC2CCCCN2C(=O)COCC2CCCCN2S(=O)(=O)c2c(C)cc(C)cc2C)nc1 (stereo not shown)
### Response 99.8%

Next, consider the following molecule.
### Prompt // inhibition at 10 µM lookup, key: COc1ccc(S(=O)(=O)N2CCCCC2COCC(=O)N2CCC(CCN3CCCCC3)CC2)cc1 (stereo not shown)
### Response 92.8%

---

# test.system: B1R receptor of the rat (Rattus norvegicus, UniProt P97583)
# Construct: host or cells: CHO K1 cells (Chinese hamster ovary), stably transfected
# procedure.details: Functional study on the bradykinin receptor 1 (B1R), FLIPR Ca2+ assay, rB1R cells
# Format: cell-based
# assay.setup: CHO-K1, test substance 10 μM, agonist Des-Arg9-bradykinin 100 nM, % inhibition compared with the maximum achievable inhibition, read-out: B1R Antagonism, rat [10 μM] % Inhibition
measurement.label: inhibition at 10 µM
Respond with the figure and its unit, in that order.

### Prompt What value of inhibition at 10 µM has been recorded for this entry: O=C(COCC1CCCCN1S(=O)(=O)c1c(Cl)cccc1Cl)N1CCN(c2cccc(C(F)(F)F)c2)CC1 (stereo not shown) [Example 481]
### Response 104%

### Prompt For the compound COc1cc(C)c(S(=O)(=O)N2CCCCC2COCC(=O)NCCc2cnccn2)c(C)c1 (stereo not shown) [Example 425] , what inhibition at 10 µM is on record?
### Response 98.8%

### Prompt May I ask what inhibition at 10 µM has been recorded for COc1cc(C)c(S(=O)(=O)N2CCCCC2COCC(=O)N2CCCC2c2ccc(N(C)C)cc2)c(C)c1 (stereo not shown) [Example 398] ?
### Response 98%

### Prompt Which inhibition at 10 µM is reported for this compound? COc1cc(C)c(S(=O)(=O)N2CCCC2COCC(=O)N2CCN(Cc3ccc(Cl)cc3)CC2)c(C)c1 (stereo not shown) [Example 352]
### Response 104%

---
### Prompt Query: inhibition at 10 µM; subject: COc1cc(C)c(S(=O)(=O)N2CCCC2COCC(=O)N2CCC(c3cccnc3)C2)c(C)c1 (stereo not shown) [Example 272]
### Response 84.6%

### Prompt Given the entry COc1cc(C)c(S(=O)(=O)N2CCCCC2COCC(=O)NCc2cccc(Oc3cnccn3)c2)c(C)c1 (stereo not shown) [Example 195] , report its measured inhibition at 10 µM.
### Response 98.8%

### Prompt Requested read-out: inhibition at 10 µM. Entry: COc1cc(C)c(S(=O)(=O)N2CCCC2COCC(=O)N2CCN(Cc3ccc(C)cc3)CC2)c(C)c1 (stereo not shown) [Example 353]
### Response 102%

---

# test.system: B1R receptor of the rat (Rattus norvegicus)
# Construct: host or cells: CHO K1 cells (Chinese hamster ovary), stably transfected
# procedure.details: Functional study on the bradykinin receptor 1 (B1R), FLIPR Ca2+ assay, rB1R cells
# Assay type: cell-based
# assay.setup: CHO-K1, test substance 10 μM, agonist Des-Arg9-bradykinin 100 nM, % inhibition compared with the maximum achievable inhibition, read-out: B1R Antagonism, rat [10 μM] % Inhibition
inhibition at 10 µM overview
The answer is to be given in %; state only the numeric part.

### Prompt Missing value: inhibition at 10 µM, B1R receptor of the rat (Rattus norvegicus), entry COc1cc(C)c(S(=O)(=O)N2CCCC2COCC(=O)N(C)C(CN2CCN(C)CC2)c2ccccc2)c(C)c1 (stereo not drawn) . Fill in?
### Response 99.8

### Prompt Form entry - test system: B1R receptor of the rat (Rattus norvegicus); read-out: inhibition at 10 µM; compound: CN1CCC(N2CCN(C(=O)COCC3CCCCN3S(=O)(=O)c3cccc(Br)c3)CC2)CC1 (stereo not drawn)
### Response 52.7

### Prompt Record O=C(COCC1CCCCN1S(=O)(=O)c1c(Cl)cc(Cl)cc1Cl)NCc1ccc(CN2CCCCC2)cc1 (stereo not drawn) : what is its inhibition at 10 µM with B1R receptor of the rat (Rattus norvegicus)?
### Response 106

### Prompt Notebook: pull reported inhibition at 10 µM for B1R receptor of the rat (Rattus norvegicus), entry Cc1cc(C)c(S(=O)(=O)N2CCCCC2COCC(=O)N2CCCC2CN2CCCCC2)c(C)c1 (stereo not drawn)
### Response 97.7

### Prompt Give B1R receptor of the rat (Rattus norvegicus) inhibition at 10 µM for CN1CCC(N2CCN(C(=O)COCC3CCCCN3S(=O)(=O)c3ccc4ccccc4c3)CC2)CC1 (stereo not drawn)
### Response 101

New cases:
### Prompt For B1R receptor of the rat (Rattus norvegicus), provide inhibition at 10 µM of COc1cc(C)c(S(=O)(=O)N2CCCCC2COCC(=O)Nc2ccc(N3CCCC3)cc2)c(C)c1 (stereo not drawn) please.
### Response 81.4

### Prompt Request body: readout inhibition at 10 µM, system B1R receptor of the rat (Rattus norvegicus), query COc1cc(C)c(S(=O)(=O)N2CCCCC2COCC(=O)N2CCN(Cc3nc(-c4ccccc4)[nH]c3Cl)CC2)c(C)c1 (stereo not drawn) . Return the value.
### Response 100

### Prompt Observed inhibition at 10 µM on B1R receptor of the rat (Rattus norvegicus) for COc1cc(C)c(S(=O)(=O)N2CCCCC2COCC(=O)N(Cc2ccc(N(C)C)cc2)C(C)C)c(C)c1 (stereo not drawn) , please.
### Response 103

### Prompt Find inhibition at 10 µM (B1R receptor of the rat (Rattus norvegicus)) for the entry COc1cc(C)c(S(=O)(=O)N2CCCCC2COCC(=O)NCC2CCCN(Cc3ccccc3)C2)c(C)c1 (stereo not drawn)
### Response 97.5

### Prompt Find the measured inhibition at 10 µM: item COc1cc(C)c(S(=O)(=O)N2CCCCC2COCC(=O)N2CCN(C(=O)OC(C)(C)C)CC2)c(C)c1 (stereo not drawn) , target or system B1R receptor of the rat (Rattus norvegicus).
### Response 100

### Prompt Missing value: inhibition at 10 µM, B1R receptor of the rat (Rattus norvegicus), entry O=C(COCC1CCCCN1S(=O)(=O)c1c(Cl)cc(Cl)cc1Cl)NCCN1CCCC1 (stereo not drawn) . Fill in?
### Response 102

### Prompt GET /values?readout=inhibition at 10 µM&system=B1R receptor of the rat (Rattus norvegicus)&item= COc1cc(C)c(S(=O)(=O)N2CCCCC2COCC(=O)N2CCC(C(=O)N3CCN(C)CC3)CC2)c(C)c1 (stereo not drawn)
### Response 99.6

### Prompt Any idea what inhibition at 10 µM came out for COc1ccc(N2CCN(C(=O)COCC3CCCN3S(=O)(=O)c3c(Cl)cc(Cl)cc3Cl)CC2)cc1 (stereo not drawn) on B1R receptor of the rat (Rattus norvegicus)?
### Response 102

### Prompt Entry O=C(COCC1CCCCN1S(=O)(=O)c1c(Cl)cc(Cl)cc1Cl)NCc1ccc(CN2CCOCC2)cc1 (stereo not drawn) , system B1R receptor of the rat (Rattus norvegicus): what inhibition at 10 µM was measured?
### Response 108

### Prompt Item: COc1cc(C)c(S(=O)(=O)N2CCCC2COCC(=O)N2CCC(CCN3CCCCC3)CC2)c(C)c1 (stereo not drawn) Test system: B1R receptor of the rat (Rattus norvegicus) Read-out: inhibition at 10 µM Value: ?
### Response 102

---

# test.system: B1R receptor of the rat (Rattus norvegicus, UniProt P97583)
# Construct: host or cells: CHO K1 cells (Chinese hamster ovary), stably transfected
# procedure.details: Functional study on the bradykinin receptor 1 (B1R), FLIPR Ca2+ assay, rB1R cells
# Type: cell-based
# assay.setup: CHO-K1, test substance 10 μM, agonist Des-Arg9-bradykinin 100 nM, % inhibition compared with the maximum achievable inhibition, read-out: B1R Antagonism, rat [10 μM] % Inhibition
Where a name gives a salt, the structure may show the parent alone.
measurement.label: inhibition at 10 µM (%)
Express it in %; write the number only.

### Prompt Entry COc1cc(C)c(S(=O)(=O)N2CCCC2COCC(=O)N2CCN(c3ncc(C(F)(F)F)cc3Cl)CC2)c(C)c1 (stereo not drawn) : reported inhibition at 10 µM = ?
### Response 102

### Prompt Can you look up the measured inhibition at 10 µM of COc1cc(C)c(S(=O)(=O)N2CCCCC2COCC(=O)N(CCCN(C)C)CCCN(C)C)c(C)c1 (stereo not drawn) for me?
### Response 101

### Prompt Endpoint output: inhibition at 10 µM of COc1cc(C)c(S(=O)(=O)N2CCCC2COCC(=O)N2CCN(Cc3ccc(Cl)c(Cl)c3)CC2)c(C)c1 (stereo not drawn) . Value?
### Response 103

### Prompt Need inhibition at 10 µM of O=C(COCC1CCCN1S(=O)(=O)c1c(Cl)cc(Cl)cc1Cl)NCCN1CCCCC1 (stereo not drawn) , thanks.
### Response 92.2

### Prompt Entry COc1cc(C)c(S(=O)(=O)N2CCCCC2COCC(=O)NCc2ccc(CN3CCN(C)CC3)cc2)c(C)c1 (stereo not drawn) : reported inhibition at 10 µM = ?
### Response 99.3

### Prompt For the molecule O=C(COCC1CCCCN1S(=O)(=O)c1c(Cl)cccc1Cl)N1CCN(Cc2ccccc2)CC1 (stereo not drawn) , what inhibition at 10 µM is on record?
### Response 103

### Prompt # inhibition at 10 µM lookup, item COc1cc(C)c(S(=O)(=O)N2CCCCC2COCC(=O)N2CCN(Cc3ccc(Cl)cc3)CC2)c(C)c1 (stereo not drawn)
### Response 98.6

### Prompt Quick check: inhibition at 10 µM of COc1cc(C)c(S(=O)(=O)N2CCCC2COCC(=O)N2CCN(Cc3cccc(C#N)c3)CC2)c(C)c1 (stereo not drawn) [Example 93, hydrochloride] ?
### Response 99.1

Next:
### Prompt I have this molecule here, CC(C)c1cc(C(C)C)c(S(=O)(=O)N2CCCCC2COCC(=O)N2CCN(C3CCN(C)CC3)CC2)c(C(C)C)c1 (stereo not drawn) , and I need its recorded inhibition at 10 µM.
### Response 61.9

### Prompt Entry COc1cc(C)c(S(=O)(=O)N2CCCCC2COCC(=O)Nc2cc(C)nc3ccccc23)c(C)c1 (stereo not drawn) has what inhibition at 10 µM?
### Response 97.3

### Prompt Request the reported inhibition at 10 µM associated with CCOCCN1CCN(C(=O)COCC2Cc3ccccc3CN2S(=O)(=O)c2c(C)cc(C)cc2C)CC1 (stereo not drawn)
### Response 80.5

### Prompt For the molecule shown here, COc1cc(C)c(S(=O)(=O)N2CCCC2COCC(=O)Nc2ccc(N3CCN(C)CC3)cc2)c(C)c1 (stereo not drawn) , give the reported inhibition at 10 µM.
### Response 101

### Prompt Looking for the measured inhibition at 10 µM of O=C(COCC1CCCCN1S(=O)(=O)c1c(Cl)cccc1Cl)N1CCN(CC2CCCCC2)CC1 (stereo not drawn) , can you help?
### Response 101

### Prompt Record request: inhibition at 10 µM value, item Cc1cc(C)c(S(=O)(=O)N2Cc3ccccc3CC2COCC(=O)N2CCN(CCCN(C)C)CC2)c(C)c1 (stereo not drawn)
### Response 80.6

### Prompt Field request: inhibition at 10 µM | item: Cc1ccc(N2CCN(C(=O)COCC3CCCCN3S(=O)(=O)c3c(Cl)cccc3Cl)CC2)cc1C (stereo not drawn)
### Response 100
